- EXPERIMENTAL_DETAILS: Half life in rat
- Assay type: ADME, organism-based
- MEASUREMENT_PARAMETERS: in vivo
RESULT_TYPE: half-life (h)

molecule_smiles=CNCCCOc1cc(F)c(-c2c(Cl)nc(-c3cnccn3)nc2N[C@@H](C)C(F)(F)F)c(F)c1 measured_value=8.6
